target: thromboxane synthetase (Rattus norvegicus); construct: The platelets were isolated by centrifuging the PRP; endogenous in cells; host or cells: washed platelets from arterial blood of Okamoto-Aoki spontaneously hypertensive rats (Taconic Farms); test: Inhibition of thromboxane (TXB2) formation in washed SHR platelets, RIA; assay type: cell-based, spontaneously hypertensive rats (Okamoto-Aoki); details: 10 min, Dose 10^-4 (unit inferred), about 10 minutes at about 37° C.
Sequence (P49430 whole entry): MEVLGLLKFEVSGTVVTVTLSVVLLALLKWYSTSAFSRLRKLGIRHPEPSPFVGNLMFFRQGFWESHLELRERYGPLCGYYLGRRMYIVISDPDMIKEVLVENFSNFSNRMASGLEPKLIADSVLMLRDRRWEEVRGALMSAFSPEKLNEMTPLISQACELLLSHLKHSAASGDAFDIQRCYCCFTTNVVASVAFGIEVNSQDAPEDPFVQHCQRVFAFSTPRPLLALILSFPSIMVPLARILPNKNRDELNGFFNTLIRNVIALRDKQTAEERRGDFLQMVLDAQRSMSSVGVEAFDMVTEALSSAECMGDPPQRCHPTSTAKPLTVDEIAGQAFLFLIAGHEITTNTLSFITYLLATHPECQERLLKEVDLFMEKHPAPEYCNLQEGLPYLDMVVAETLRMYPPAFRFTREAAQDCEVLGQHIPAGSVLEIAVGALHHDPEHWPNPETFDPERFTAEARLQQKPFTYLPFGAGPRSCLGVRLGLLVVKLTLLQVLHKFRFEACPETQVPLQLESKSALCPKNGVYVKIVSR
observation_type: inhibition at 100 µM (%)

                         structure_smiles                               test_system  unit_tag  measured_result
 0            O=C(NCCCn1cncn1)c1ccc(Cl)s1  thromboxane synthetase (Rattus norvegicus)         %               64
 1             O=C(C=Cc1cccs1)NCCCn1cncn1  thromboxane synthetase (Rattus norvegicus)         %               68
 2        O=C(NCCCn1cncn1)c1sc2ccccc2c1Cl  thromboxane synthetase (Rattus norvegicus)         %               60
 3       O=C(NCCCCn1cncn1)c1sc2ccccc2c1Cl  thromboxane synthetase (Rattus norvegicus)         %               90
 4            O=C(NCCCn1cncn1)c1ccc(Br)o1  thromboxane synthetase (Rattus norvegicus)         %               61
 5                O=C(NCCCn1cncn1)c1cccs1  thromboxane synthetase (Rattus norvegicus)         %               30
 6          O=C(NCCCn1cncn1)c1cc2ccccc2o1  thromboxane synthetase (Rattus norvegicus)         %               84
 7             Cc1ccc(C(=O)NCCCn2cncn2)s1  thromboxane synthetase (Rattus norvegicus)         %               56
 8  O=C(NCCCn1cncn1)c1ccc([N+](=O)[O-])o1  thromboxane synthetase (Rattus norvegicus)         %               70
 9                O=C(NCCCn1cncn1)c1ccco1  thromboxane synthetase (Rattus norvegicus)         %               65
10         O=C(NCCn1cncn1)c1sc2ccccc2c1Cl  thromboxane synthetase (Rattus norvegicus)         %               90
11        O=C(NCCCn1cncn1)c1cc(Br)c(Br)s1  thromboxane synthetase (Rattus norvegicus)         %               86
12                O=C(NCCCn1cncn1)c1ccoc1  thromboxane synthetase (Rattus norvegicus)         %               55
